Target: human Y5 receptor (Homo sapiens)
Assay: Y5 receptor binding inhibition test
result_type: % Inhibition ratio (10 μM) (%)
Express your answer in %, writing the number without its unit.

Query CCCn1c2c(c3cc(NC(=O)N4CCOCC4)ccc31)CCCC2 on human Y5 receptor (Homo sapiens); % Inhibition ratio (10 μM) returned: 101

Query O=C(Nc1ccc2c(c1)c1c(n2CCO)CCCC1)N1CCOCC1 on human Y5 receptor (Homo sapiens); % Inhibition ratio (10 μM) returned: 101

Query CC(C)n1c2c(c3cc(NC(=O)N(C)CCO)ccc31)CCCC2 on human Y5 receptor (Homo sapiens); % Inhibition ratio (10 μM) returned: 101

Query CC(C)n1c2c(c3cc(NC(=O)N(CCO)CCO)ccc31)CCCC2 on human Y5 receptor (Homo sapiens); % Inhibition ratio (10 μM) returned: 86

Query CC(C)n1c2c(c3cc(NC(=O)NCCO)ccc31)CCCC2 on human Y5 receptor (Homo sapiens); % Inhibition ratio (10 μM) returned: 89

* * *

Biological target: human Y5 receptor (Homo sapiens, UniProt Q15761)
Test: Y5 receptor binding inhibition test
Settings: 2 h, read-out: % Inhibition ratio (10 μM)
Measured inhibition at 10 µM, listed per entry.
Express your answer in %, writing the number without its unit.

See these solved cases before continuing.
{"structure_as_smiles": "CCn1c2ccccc2c2cc(C(=O)NCCCCNS(=O)(=O)c3cccc4ccccc34)ccc21", "inhibition at 10 µM / %": 94}
{"structure_as_smiles": "CCn1c2ccccc2c2cc(NC(=O)CCCCCCCNS(=O)(=O)c3cccc4ccccc34)ccc21", "inhibition at 10 µM / %": 78}
{"structure_as_smiles": "CCCS(=O)(=O)NCCCCCNC(=O)c1ccc2c(c1)c1ccccc1n2CC", "inhibition at 10 µM / %": 103}
{"structure_as_smiles": "CC(C)n1c2c(c3cc(NC(=O)N(C)CCc4ccncc4)cc(F)c31)CCCC2", "inhibition at 10 µM / %": 96}
{"structure_as_smiles": "CCn1c2ccccc2c2cc(NC(=O)CCCCCNS(=O)(=O)c3cccc4cccnc34)ccc21", "inhibition at 10 µM / %": 100}

Query CC(C)n1c2ccccc2c2cc(C(=O)NCCCCCNS(=O)(=O)c3cccc4ccccc34)ccc21 on human Y5 receptor (Homo sapiens, UniProt Q15761); inhibition at 10 µM returned: 100

Query CC(C)n1c2c(c3cc(NC(=S)N(C)CCc4ccncc4)ccc31)CCCC2 on human Y5 receptor (Homo sapiens, UniProt Q15761); inhibition at 10 µM returned: 97

Query CCOc1c(C(=O)NCCCCCNS(=O)(=O)c2cccc3ccccc23)ccc2c1c1c(n2CC)CCCC1 on human Y5 receptor (Homo sapiens, UniProt Q15761); inhibition at 10 µM returned: 91

* * *

Target: human Y5 receptor (Homo sapiens)
Assay: Y5 receptor binding inhibition test
Conditions: test compound 10 μM; 3H-NPY; membrane of insect cells expressing human Y5 receptor; 4° C., 2 hours; relative to Y5 specific binding in solvent group
Measured % Inhibition ratio (10 μM), listed per entry.
Express your answer in %, writing the number without its unit.

See these solved cases before continuing.
{"molecule": "CC(C)n1c2c(c3cc(NC(=O)N4CCOCC4)ccc31)CCC2", "% Inhibition ratio (10 μM), %": 94}
{"molecule": "O=C(Nc1ccc2c(c1)c1c(n2CC2CC2)CCCC1)N1CCOCC1", "% Inhibition ratio (10 μM), %": 100}

Reported % Inhibition ratio (10 μM) for CC(C)n1c2c(c3cc(NC(=O)N4CCC[C@H]4CO)ccc31)CCCC2 was 100

Reported % Inhibition ratio (10 μM) for N#CCn1c2c(c3cc(NC(=O)N4CCOCC4)ccc31)CCCC2 was 78

Reported % Inhibition ratio (10 μM) for CC(C)n1c2c(c3cc(NC(=O)N4CCC(N5CCCCC5)CC4)ccc31)CCCC2 was 83

Reported % Inhibition ratio (10 μM) for CC(C)n1c2c(c3cc(NC(=O)N4CCC[C@@H]4CO)ccc31)CCCC2 was 88

Reported % Inhibition ratio (10 μM) for CC(C)n1c2c(c3cc(NC(=O)N(C)CCN4CCN(C)CC4)ccc31)CCCC2 was 87

Reported % Inhibition ratio (10 μM) for CC(C)n1c2c(c3cc(NC(=O)N(C)[C@H]4CC[C@H](O)CC4)ccc31)CCCC2 was 100

Reported % Inhibition ratio (10 μM) for CC(C)n1c2c(c3cc(NC(=O)N(C)C4CCCCC4)ccc31)CCCC2 was 97

Reported % Inhibition ratio (10 μM) for CC(C)n1c2c(c3cc(NC(=O)N4CCOCC4)ccc31)CCCCC2 was 97

Reported % Inhibition ratio (10 μM) for CC(C)n1c2c(c3cc(NC(=O)N(C)CCSc4nnc[nH]4)ccc31)CCCC2 was 98

Reported % Inhibition ratio (10 μM) for CC(C)n1c2c(c3cc(NC(=O)N4CCOC(CCO)C4)ccc31)CCCC2 (stereo not drawn) was 99

Reported % Inhibition ratio (10 μM) for CC(C)n1c2c(c3cc(NC(=O)N(C)CCc4ccncc4)ccc31)CCCCC2 was 100

* * *

Measured inhibition at 10 µM, listed per entry.
Molecular target: human Y5 receptor (Homo sapiens)
Experiment: Y5 receptor binding inhibition test
Conditions: 2 h, read-out: % Inhibition ratio (10 μM)
Express your answer in %, writing the number without its unit.

{"structure_as_smiles": "CCn1c2ccccc2c2cc(C(=O)NCCCCCNC(=O)C(C)C)ccc21", "tested_on": "human Y5 receptor (Homo sapiens)", "inhibition at 10 µM, %": 88}

Reported inhibition at 10 µM for CCn1c2ccccc2c2cc(NC(=O)C3CC3)ccc21 was 100

* * *

Molecular target: UniProtKB Q15761
Experiment: Y5 receptor binding inhibition test
Conditions: 2 h, read-out: % Inhibition ratio (10 μM)
Classification field: enter True for inhibition at 10 µM values not below 80%, False for values below it.

Ask | // inclusive: inhibition at 10 µM at least 80%? input: CCn1c2c(c3cc(C(=O)NCCCCCNS(=O)(=O)c4cccc5ccccc45)c(O)cc31)CCCC2
Reply | False

Ask | // inclusive: inhibition at 10 µM at least 80%? input: CCn1c2ccccc2c2cc(C(=O)NCCCCCNS(=O)(=O)c3cccnc3)ccc21
Reply | True

Ask | // inclusive: inhibition at 10 µM at least 80%? input: CCn1c2ccccc2c2c(O)c(C(=O)NCCCCCNS(=O)(=O)c3cccc4ccccc34)ccc21
Reply | False

Ask | // inclusive: inhibition at 10 µM at least 80%? input: CCn1c2ccccc2c2cc(C(=O)NCCCCCN3C(=O)c4ccccc4C3=O)ccc21
Reply | True

Ask | // inclusive: inhibition at 10 µM at least 80%? input: CCn1c2ccccc2c2cc(C(=O)NCCCCCNC(=O)c3ccccc3)ccc21
Reply | True

Ask | // inclusive: inhibition at 10 µM at least 80%? input: COCCn1c2c(c3cc(C(=O)NCCOCCNS(=O)(=O)C(C)C)ccc31)CCCC2
Reply | True

Ask | // inclusive: inhibition at 10 µM at least 80%? input: CCn1c2ccccc2c2cc(C(=O)NCCOCCNS(=O)(=O)c3cccc4ccccc34)ccc21
Reply | True

* * *

Target: human Y5 receptor (Homo sapiens, UniProt Q15761)
Assay: Y5 receptor binding inhibition test
Conditions: 2 h, read-out: % Inhibition ratio (10 μM)
result_type: inhibition at 10 µM (%)
Express your answer in %, writing the number without its unit.

See these solved cases before continuing.
{"structure_as_smiles": "CCn1c2ccccc2c2c(OC)c(C(=O)NCCCCCNS(=O)(=O)c3cccc4ccccc34)ccc21", "measurement_units": "%", "inhibition at 10 µM": 92}
{"structure_as_smiles": "CCn1c2ccccc2c2cc(C(=O)NCCCCCCNS(=O)(=O)c3cccc4ccccc34)ccc21", "measurement_units": "%", "inhibition at 10 µM": 82}
{"structure_as_smiles": "CCn1c2ccccc2c2cc(NC(=O)CCCCNS(=O)(=O)c3ccc4ccccc4c3)ccc21", "measurement_units": "%", "inhibition at 10 µM": 93}

Reported inhibition at 10 µM for CC(C)S(=O)(=O)NCCCCCNC(=O)c1ccc2c(c1)c1c(n2CC(N)=O)CCCC1 was 77

Reported inhibition at 10 µM for CCn1c2ccccc2c2cc(NC(=O)CCCCNS(=O)(=O)c3cccc4ccccc34)ccc21 was 95

* * *

Measured % Inhibition ratio (10 μM), listed per entry.
Biological target: human Y5 receptor (Homo sapiens)
Sequence (Q15761 1-445): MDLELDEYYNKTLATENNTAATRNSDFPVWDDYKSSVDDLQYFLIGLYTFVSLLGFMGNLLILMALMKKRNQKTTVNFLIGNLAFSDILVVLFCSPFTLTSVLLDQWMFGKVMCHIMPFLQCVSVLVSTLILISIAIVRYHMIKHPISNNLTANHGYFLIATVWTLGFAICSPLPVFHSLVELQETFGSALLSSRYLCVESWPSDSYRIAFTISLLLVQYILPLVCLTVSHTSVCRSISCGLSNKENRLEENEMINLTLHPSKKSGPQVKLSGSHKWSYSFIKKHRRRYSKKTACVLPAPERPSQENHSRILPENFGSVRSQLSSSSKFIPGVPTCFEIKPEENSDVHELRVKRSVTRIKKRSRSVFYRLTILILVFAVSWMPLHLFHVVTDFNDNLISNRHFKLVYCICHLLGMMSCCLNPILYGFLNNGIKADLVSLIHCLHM
Test: Y5 receptor binding inhibition test
Settings: test compound 10 μM; 3H-NPY; membrane of insect cells expressing human Y5 receptor; 4° C., 2 hours; relative to Y5 specific binding in solvent group
Express your answer in %, writing the number without its unit.

See these solved cases before continuing.
{"compound": "CC(C)n1c2c(c3cc(NC(=O)N4CCCC4)ccc31)CCCC2 [Compound 7-1]", "measurement_units": "%", "assay_value": 92}
{"compound": "CC(C)n1c2c(c3cc(NC(=O)N(C)CCc4ccncc4)ccc31)CCC2 [Compound 10-3]", "measurement_units": "%", "assay_value": 95}
{"compound": "CC(C)Cn1c2c(c3cc(NC(=O)N4CCOCC4)ccc31)CCCC2 [Compound 8-6]", "measurement_units": "%", "assay_value": 100}
{"compound": "CC(C)n1c2c(c3cc(NC(=O)N4CCC(O)C4)ccc31)CCCC2 (centres unmarked) [Compound 7-4]", "measurement_units": "%", "assay_value": 90}
{"compound": "CC(C)n1c2c(c3cc(NC(=O)N4CCCCCC4)ccc31)CCCC2 [Compound 7-3]", "measurement_units": "%", "assay_value": 98}

Reported % Inhibition ratio (10 μM) for CC(C)n1c2c(c3cc(NC(=O)N4CCOCC4)ccc31)CCCC2 [Compound 8-4] was 98

Reported % Inhibition ratio (10 μM) for COCCCCN(C)C(=O)Nc1ccc2c(c1)c1c(n2C(C)C)CCCC1 [Compound 5-7] was 100

Reported % Inhibition ratio (10 μM) for CCCCn1c2c(c3cc(NC(=O)N4CCOCC4)ccc31)CCCC2 [Compound 8-5] was 85

Reported % Inhibition ratio (10 μM) for CC(C)n1c2c(c3cc(NC(=O)N(C)CCCCO)ccc31)CCCC2 [Compound 5-6] was 89

Reported % Inhibition ratio (10 μM) for CC(C)n1c2c(c3cc(NC(=O)N(C)CCCN(C)C)ccc31)CCCC2 [Compound 5-5] was 82

Reported % Inhibition ratio (10 μM) for CC(C)n1c2c(c3cc(NC(=O)N(C)CCCSc4nnc[nH]4)ccc31)CCCC2 [Compound 5-24] was 95

Reported % Inhibition ratio (10 μM) for CC(C)n1c2c(c3cc(NC(=O)N(C)CCC#N)ccc31)CCCC2 [Compound 5-9] was 98

Reported % Inhibition ratio (10 μM) for CC(=O)n1c2c(c3cc(NC(=O)N4CCOCC4)ccc31)CCCC2 [Compound 8-11] was 102

Reported % Inhibition ratio (10 μM) for CC(C)n1c2c(c3cc(NC(=O)N4CCC(O)CC4)ccc31)CCCC2 [Compound 7-7] was 97

Reported % Inhibition ratio (10 μM) for CC(C)n1c2c(c3cc(NC(=O)N(C)CCc4ccccn4)ccc31)CCCCC2 [Compound 11-2] was 96

Reported % Inhibition ratio (10 μM) for CCCCN(C)C(=O)Nc1ccc2c(c1)c1c(n2C(C)C)CCCC1 [Compound 5-3] was 98
